tested on: MV-4-11 cells
experimental.endpoint: GI50 (µM)

compound="Cc1cc(N2C(=O)c3nn(C(=O)N(C)C)c(C)c3C2c2ccc(Cl)cc2)cn(C)c1=O (centres unmarked)" target_entity="MV-4-11 cells" experimental_endpoint=GI50 units_label=µM readout_number=0.136
compound=COCc1nn(C2CC2)c2c1[C@@H](c1ccc(Cl)cc1)N(c1cc(C)c(=O)n(C)c1)C2=O target_entity="MV-4-11 cells" experimental_endpoint=GI50 units_label=µM readout_number=0.0418
compound="Cc1nn(C)c2c1C(c1ccc(Cl)cc1)N(c1cc(Cl)c(=O)n(C)c1)C2=O (centres unmarked)" target_entity="MV-4-11 cells" experimental_endpoint=GI50 units_label=µM readout_number=0.0944
compound="CCn1nc(C)c2c1C(=O)N(c1cc(C)c3nnc(C)n3c1)C2c1ccc(Cl)cc1F (centres unmarked)" target_entity="MV-4-11 cells" experimental_endpoint=GI50 units_label=µM readout_number=0.0242
compound="CCn1nc2c(c1C)C(c1ccc(Cl)cc1F)N(c1cc(C)c(=O)n(C)c1)C2=O (centres unmarked)" target_entity="MV-4-11 cells" experimental_endpoint=GI50 units_label=µM readout_number=0.0938
compound="Cc1cc(N2C(=O)c3nn(C4CN(C)C4)c(C)c3C2c2ccc(Cl)cc2)cn(C)c1=O (centres unmarked)" target_entity="MV-4-11 cells" experimental_endpoint=GI50 units_label=µM readout_number=0.0729
compound="Cc1nn(C(C)C)c2c1C(c1ccc(Cl)cc1F)N(c1cc(C)c(=O)n(C)c1)C2=O (centres unmarked)" target_entity="MV-4-11 cells" experimental_endpoint=GI50 units_label=µM readout_number=0.068
compound="CCc1nn(CCO)c2c1C(c1ccc(Cl)cc1)N(c1cc(C)c(=O)n(C)c1)C2=O (centres unmarked)" target_entity="MV-4-11 cells" experimental_endpoint=GI50 units_label=µM readout_number=0.052

---

Entries and their GI50 values follow.
system: K-562 cells
experimental.endpoint: GI50

molecule="CCn1nc2c(c1C)C(c1ccc(Cl)cc1F)N(c1cc(C)c(=O)n(C)c1)C2=O (stereo not shown) [Example 171]" result="442 nM"
molecule="Cc1c2c(nn1C)C(=O)N(c1cc(Cl)c(=O)n(C)c1)[C@@H]2c1ccc(Cl)cc1 [Example 7]" result="632 nM"
molecule="Cc1cc(N2C(=O)c3c(cnn3C(C)C)C2c2ccc(Cl)cc2)cn(C)c1=O (stereo not shown) [Example 36]" result="430 nM"
molecule="CCn1nc(C)c2c1C(=O)N(c1cc(C)c3nnc(C)n3c1)C2c1ccc(Cl)cc1 (stereo not shown) [Example 116]" result="81.2 nM"
molecule="COc1ncc(-n2nc3c(c2C(C)C)C(c2ccc(Cl)cc2)N(c2cc(C)c4onc(C)c4c2)C3=O)c(OC)n1 (stereo not shown) [Example 46]" result="370 nM"
molecule="Cc1cc(N2C(=O)c3nn(C4CNC4)c(C)c3C2c2ccc(Cl)cc2)cn2c(C)nnc12 (stereo not shown) [Example 152]" result="4330 nM"
molecule="Cc1nn(C2CCC2)c2c1C(c1ccc(Cl)cc1)N(c1cc(C)c(=O)n(C)c1)C2=O (stereo not shown) [Example 94]" result="96.9 nM"
molecule="CCc1nn(C2CC2)c2c1[C@H](c1ccc(Cl)cc1)N(c1cc(C)c3nnc(C)n3c1)C2=O [Example 106]" result="4060 nM"
molecule="Cc1nn(C(C)C)c2c1C(c1ccc(Cl)cc1)N(c1cc(Cl)c(=O)n(C)c1)C2=O (stereo not shown) [Example 66]" result="908 nM"
molecule="COc1ncc(-n2nc3c(c2C)C(c2ccc(Cl)cc2)N(c2cc(Cl)c(=O)n(C)c2)C3=O)c(OC)n1 (stereo not shown) [Example 55]" result="400 nM"
molecule="COc1ncccc1-n1nc(C)c2c1C(=O)N(c1cc(C)c(=O)n(C)c1)[C@H]2c1ccc(Cl)cc1 [Example 127]" result="> 10000 nM"
molecule="Cc1nn(C2CC2)c2c1C(c1ccc(Cl)cc1)N(c1ccc3nnn(C)c3n1)C2=O (stereo not shown) [Example 102]" result="653 nM"
molecule="CNC(=O)n1nc2c(c1C)C(c1ccc(Cl)cc1)N(c1cc(C)c(=O)n(C)c1)C2=O (stereo not shown) [Example 144]" result="432 nM"
molecule="Cc1cc(N2C(=O)c3nn(C4COC4)c(C)c3C2c2ccc(Cl)cc2)cn2c(C)nnc12 (stereo not shown) [Example 136]" result="335 nM"
molecule="CCn1nc2c(c1C)C(c1ccc(Cl)cc1)N(c1cc(C)c3nnc(C)n3c1)C2=O (stereo not shown) [Example 115]" result="142 nM"
molecule="Cc1nn(C2CC2)c2c1[C@H](c1ccc(Cl)cc1)N(c1cc(C)c3nnc(C)n3n1)C2=O [Example 123]" result="9400 nM"
molecule="Cc1cc(N2C(=O)c3c(c(CO)nn3C3CC3)C2c2ccc(Cl)cc2)cn2c(C)nnc12 (stereo not shown) [Example 131]" result="215 nM"
molecule="Cc1nn(C2CC2)c2c1C(c1ccc(F)cc1F)N(c1cc(C)c3nnc(C)n3c1)C2=O (stereo not shown) [Example 176]" result="145 nM"
molecule="Cc1n[nH]c2c1[C@@H](c1ccc(Cl)cc1)N(c1cc(C)c3nnc(C)n3c1)C2=O [Example 165]" result="190 nM"
molecule="Cc1[nH]nc2c1C(c1ccc(Cl)cc1)N(c1cc(C)c(=O)n(C)c1)C2=O (stereo not shown) [Example 27]" result="463 nM"
molecule="COc1ncccc1-n1nc(C)c2c1C(=O)N(c1cc(C)c3nnc(C)n3c1)C2c1ccc(Cl)cc1 (stereo not shown) [Example 101]" result="261 nM"
molecule="COc1ncccc1-n1nc(C)c2c1C(=O)N(c1cc(C)c(=O)n(C)c1)[C@@H]2c1ccc(Cl)cc1 [Example 128]" result="183 nM"
molecule="Cc1nn(C(C)C)c2c1[C@@H](c1ccc(Cl)cc1F)N(c1cc(C)c3nnc(C)n3c1)C2=O [Example 189]" result="88.5 nM"
molecule="Cc1cc(N2C(=O)c3nn(C)c(O)c3C2c2ccc(Cl)cc2)cn(C)c1=O (stereo not shown) [Example 73]" result="> 10000 nM"
molecule="Cc1cc(N2C(=O)c3c(c(C4CC4)nn3-c3ccnn3C)C2c2ccc(Cl)cc2)cn2c(C)nnc12 (stereo not shown) [Example 117]" result="150 nM"
molecule="Cc1nn(C2CC2)c2c1[C@@H](c1ccc(Cl)cc1)N(c1cc(C)c(=O)n(C)c1)C2=O [Example 49]" result="120 nM"
molecule="Cc1nn(C2CC2)c2c1[C@@H](c1ccc(Cl)cc1)N(c1cc(C)c3nnc(C)n3n1)C2=O [Example 122]" result="24.1 nM"
molecule="CCn1nc(C)c2c1C(=O)N(c1cc(C)c3nnc(C)n3c1)C2c1ccc(F)cc1F (stereo not shown) [Example 181]" result="160 nM"
molecule="CCc1nn(C2CC2)c2c1[C@@H](c1ccc(Cl)cc1)N(c1cc(C)c3nnc(C)n3c1)C2=O [Example 107]" result="37.9 nM"
molecule="Cc1nn(-c2ccnn2C)c2c1[C@H](c1ccc(Cl)cc1)N(c1cc(C)c(=O)n(C)c1)C2=O [Example 121]" result="9710 nM"
molecule="CCc1c2c(nn1CCO)C(=O)N(c1cc(C)c3onc(C)c3c1)C2c1ccc(Cl)cc1 (stereo not shown) [Example 80]" result="868 nM"

Reference source: patent US20160095843A1
